Where do the numbers come from? From paper PMC7826789.

# Test system: TYRO3
# setup_conditions: Compound Concentration (nM):1000;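 note: KINOMEscan scanMAX binding as percent activity remaining versus control; lower means stronger binding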
Overview of reported Percent Control across a group of compounds:
Please respond with the number in % and leave the unit unwritten.

In the examples that follow, each entry is paired with its recorded Percent Control.
> print(dat)
                                   compound  result.unit  observed.measurement
1  NS(=O)(=O)c1ccc(N/N=C2\C(=O)Nc3ccc(C(=O)NCCc4c[nH]cn4)cc32)cc1 [GW300660X]            %                   100
2  CCc1ccc(Oc2nccc(-c3c(-c4ccc(F)cc4)ncn3C3CCNCC3)n2)cc1 [SB-242719]            %                    62
3  O=C1Nc2ccc(C(=O)c3ccco3)cc2C1=Cc1cc(Cl)c(O)c(Cl)c1 [GW406108X]            %                    86
4  O=C(Nc1n[nH]c2nc(-c3ccc(O)cc3)c(Br)cc12)C1CC1 [SB-725317]            %                   100
5  COc1ccc(COc2ccc(Cc3cnc(N)nc3N)cc2OC)cc1 [GW632580X]            %                    71

INPUT: Determine from records and report Percent Control for Cc1cc(O)cc(C)c1/C=C/c1cncc(C(N)=O)c1 [GW435821X]
OUTPUT: 100

INPUT: Determine from records and report Percent Control for NS(=O)(=O)c1ccc(Nc2ncc(-c3ccccc3)o2)cc1 [GW572399X]
OUTPUT: 100

INPUT: Determine from records and report Percent Control for COc1cc(/C=N/Nc2ncnc3[nH]ncc23)ccc1O [GW578748X]
OUTPUT: 99

INPUT: Determine from records and report Percent Control for CN1CCN(C(=O)c2ccc(NC(=O)Nc3ccc(N(C)c4ccnc(Nc5ccc(CS(C)(=O)=O)cc5)n4)cc3)cc2)CC1.Cl [GW830263A]
OUTPUT: 92

* * *

# Test system: PFCDPK1(P.falciparum)
# Construct: gene CDPK1
# setup_conditions: Compound Concentration (nM):1000
measure_name: Percent Control (%)
Please respond with the number in % and leave the unit unwritten.

In the examples that follow, each entry is paired with its recorded Percent Control.
> print(dat)
                                   compound            test.system  result.unit  observed.measurement
1  NS(=O)(=O)c1ccc(N/N=C2\C(=O)Nc3ccc(Cl)cc32)cc1 [GW280670X]  PFCDPK1(P.falciparum)            %                    81
2  C[C@@H](Oc1cc(-n2cnc3ccc(OC4CCN(C)CC4)cc32)sc1C(N)=O)c1ccccc1Cl [GSK579289A]  PFCDPK1(P.falciparum)            %                    74
3  Cl.O=C(O[C@H]1CN[C@H](C#Cc2cc3ncnc(Nc4ccc5c(cnn5Cc5ccccc5)c4)c3s2)C1)N1CCOCC1 [GSK200398A]  PFCDPK1(P.falciparum)            %                    88

Alright, here's another compound for you.
INPUT: Determine from records and report Percent Control for O=C1Nc2ccc(C(=O)c3ccco3)cc2C1=Cc1cc(Cl)c(O)c(Cl)c1 [GW406108X]
OUTPUT: 9.5

* * *

# Tested on: PRKG1
# setup_conditions: Compound Concentration (nM):1000
Overview of reported Percent Control across a group of compounds:
Please respond with the number in % and leave the unit unwritten.

In the examples that follow, each entry is paired with its recorded Percent Control.
> print(dat)
                                   compound  observed.measurement
1  NS(=O)(=O)c1ccc(N/N=C2\C(=O)Nc3ccc(C(=O)NCc4ccncc4)cc32)cc1 [GW300657X]                   100
2  COc1ccc(COc2ccc(Cc3cnc(N)nc3N)cc2OC)cc1 [GW632580X]                   100
3  CCS(=O)(=O)c1ccc(OC)c(Nc2ncc(-c3cccc(F)c3)o2)c1 [GW621970X]                   100

INPUT: Retrieve Percent Control on PRKG1; query COc1cccc(-n2ncc3c(N/N=C/c4ccncc4)ncnc32)c1 [GW784752X]
OUTPUT: 93

INPUT: Retrieve Percent Control on PRKG1; query COc1cc(N2CCN(C(C)C)CC2)ccc1Nc1nc(Nc2ccc(F)cc2C(=O)NC[C@@H](O)CO)c2cc[nH]c2n1 [GSK1392956A]
OUTPUT: 100

INPUT: Retrieve Percent Control on PRKG1; query COC(=O)Nc1nc2ccc(Oc3ccc(NC(=O)Nc4cc(C(F)(F)F)ccc4F)cc3)cc2s1.Cl [GW693917A]
OUTPUT: 100

INPUT: Retrieve Percent Control on PRKG1; query NS(=O)(=O)c1ccc(N/N=C2\C(=O)Nc3ccc(-c4cnco4)cc32)cc1
OUTPUT: 68

INPUT: Retrieve Percent Control on PRKG1; query COc1cc2ncn(-c3cc(O[C@H](C)c4ccccc4Cl)c(C(N)=O)s3)c2cc1OC [GSK237701A]
OUTPUT: 100

INPUT: Retrieve Percent Control on PRKG1; query Cl.O=S1CCN(Cc2ccc(-c3ccc4ncnc(Nc5ccc(OCc6ccccc6)c(F)c5)c4c3)o2)CC1 [GW576924A]
OUTPUT: 100

INPUT: Retrieve Percent Control on PRKG1; query NS(=O)(=O)c1ccc(N/N=C2\C(=O)Nc3ccc(Cl)cc32)cc1 [GW280670X]
OUTPUT: 85

INPUT: Retrieve Percent Control on PRKG1; query Cl.O=C(Nc1ccc(Oc2ccc3[nH]c(NC(=O)c4ccccc4)nc3c2)cc1)Nc1cc(C(F)(F)F)ccc1F [GW709042A]
OUTPUT: 91

INPUT: Retrieve Percent Control on PRKG1; query NS(=O)(=O)c1ccc(N/N=C2\C(=O)Nc3ccc(C(=O)NCCc4c[nH]cn4)cc32)cc1 [GW300660X]
OUTPUT: 62

INPUT: Retrieve Percent Control on PRKG1; query O=C(Nc1n[nH]c2nc(-c3ccc(O)cc3)c(Br)cc12)C1CC1
OUTPUT: 100

INPUT: Retrieve Percent Control on PRKG1; query Cl.c1ccc(Cc2nc3ccc(Nc4ncnc5ccccc45)cc3[nH]2)cc1 [GR269666A]
OUTPUT: 100

INPUT: Retrieve Percent Control on PRKG1; query COc1ccccc1-c1cc(/C=C2\C(=O)Nc3ncc(Br)cc32)cc(Br)c1O [GW442130X]
OUTPUT: 100

INPUT: Retrieve Percent Control on PRKG1; query CCS(=O)(=O)c1ccc(OC)c(Nc2ncc(-c3cccc(OC)c3)o2)c1 [GW580509X]
OUTPUT: 100

INPUT: Retrieve Percent Control on PRKG1; query C/C(Nc1ccc(S(N)(=O)=O)cc1)=C1/C(=O)Nc2ccccc21 [GW335962X]
OUTPUT: 90

* * *

# Tested on: CLK1
# setup_conditions: Compound Concentration (nM):1000
Percent Control less than 80% is t; Percent Control greater than or equal to 80% is f.

Take a look at these entries with their results.
> print(dat)
                                   compound  assigned.class
1  NS(=O)(=O)c1ccc(N/N=C2\C(=O)Nc3ccc(Cl)cc32)cc1 [GW280670X]               f
2  CN(C)c1cc2c(Nc3ccc4c(cnn4Cc4ccccc4)c3)ncnc2cn1 [GW282974X]               t

INPUT: Hello, is Percent Control of the following compound strictly smaller than 80%? COc1ccccc1-c1cc(/C=C2\C(=O)Nc3ncc(Br)cc32)cc(Br)c1O [GW442130X]
OUTPUT: f

INPUT: Hello, is Percent Control of the following compound strictly smaller than 80%? Cl.c1ccc(Cc2nc3ccc(Nc4ncnc5ccccc45)cc3[nH]2)cc1 [GR269666A]
OUTPUT: f

INPUT: Hello, is Percent Control of the following compound strictly smaller than 80%? Nc1ncnc2occ(-c3ccc(NC(=O)Nc4cc(C(F)(F)F)ccc4F)cc3)c12 [GW770249X]
OUTPUT: t

INPUT: Hello, is Percent Control of the following compound strictly smaller than 80%? COC(=O)Nc1nc2ccc(Oc3ccc(NC(=O)Nc4cc(C(F)(F)F)ccc4F)cc3)cc2s1.Cl [GW693917A]
OUTPUT: t

INPUT: Hello, is Percent Control of the following compound strictly smaller than 80%? NS(=O)(=O)c1ccc(N/N=C2\C(=O)Nc3ccc(-c4cnco4)cc32)cc1
OUTPUT: t

* * *

# Tested on: CLK1
# setup_conditions: Compound Concentration (nM):1000
measure_name: Percent Control (%)
Please respond with the number in % and leave the unit unwritten.

In the examples that follow, each entry is paired with its recorded Percent Control.
> print(dat)
                                   compound  test.system     measure.name  observed.measurement
1  CC1=C(C(=O)Nc2ccc3[nH]ncc3c2)C(c2ccc3ccccc3c2)CC(=O)N1 (stereo not shown) [GSK270822A]         CLK1  Percent Control                    95
2  Cl.O=C(O[C@H]1CN[C@H](C#Cc2cc3ncnc(Nc4ccc5c(cnn5Cc5ccccc5)c4)c3s2)C1)N1CCOCC1 [GSK200398A]         CLK1  Percent Control                    83
3  O=C1Nc2ccc(C(=O)c3ccco3)cc2C1=Cc1cc(Cl)c(O)c(Cl)c1 [GW406108X]         CLK1  Percent Control                   3.3
4  CN1CCN(C(=O)c2ccc(NC(=O)Nc3ccc(N(C)c4ccnc(Nc5ccc(CS(C)(=O)=O)cc5)n4)cc3)cc2)CC1.Cl [GW830263A]         CLK1  Percent Control                    84
5  O=C(Nc1n[nH]c2nc(-c3ccc(O)cc3)c(Br)cc12)C1CC1         CLK1  Percent Control                   100

INPUT: Determine from records and report Percent Control for C[C@@H](Oc1cc(-n2cnc3ccc(OC4CCN(C)CC4)cc32)sc1C(N)=O)c1ccccc1Cl [GSK579289A]
OUTPUT: 62

INPUT: Determine from records and report Percent Control for COc1cc(N2CCN(C(C)C)CC2)ccc1Nc1nc(Nc2ccc(F)cc2C(=O)NC[C@@H](O)CO)c2cc[nH]c2n1 [GSK1392956A]
OUTPUT: 1.6
